- TARGET_ENTITY: hSCN3A sodium channels (Homo sapiens)
- Construct: expressed in transfected cells
- Sequence (Q9NY46 whole entry): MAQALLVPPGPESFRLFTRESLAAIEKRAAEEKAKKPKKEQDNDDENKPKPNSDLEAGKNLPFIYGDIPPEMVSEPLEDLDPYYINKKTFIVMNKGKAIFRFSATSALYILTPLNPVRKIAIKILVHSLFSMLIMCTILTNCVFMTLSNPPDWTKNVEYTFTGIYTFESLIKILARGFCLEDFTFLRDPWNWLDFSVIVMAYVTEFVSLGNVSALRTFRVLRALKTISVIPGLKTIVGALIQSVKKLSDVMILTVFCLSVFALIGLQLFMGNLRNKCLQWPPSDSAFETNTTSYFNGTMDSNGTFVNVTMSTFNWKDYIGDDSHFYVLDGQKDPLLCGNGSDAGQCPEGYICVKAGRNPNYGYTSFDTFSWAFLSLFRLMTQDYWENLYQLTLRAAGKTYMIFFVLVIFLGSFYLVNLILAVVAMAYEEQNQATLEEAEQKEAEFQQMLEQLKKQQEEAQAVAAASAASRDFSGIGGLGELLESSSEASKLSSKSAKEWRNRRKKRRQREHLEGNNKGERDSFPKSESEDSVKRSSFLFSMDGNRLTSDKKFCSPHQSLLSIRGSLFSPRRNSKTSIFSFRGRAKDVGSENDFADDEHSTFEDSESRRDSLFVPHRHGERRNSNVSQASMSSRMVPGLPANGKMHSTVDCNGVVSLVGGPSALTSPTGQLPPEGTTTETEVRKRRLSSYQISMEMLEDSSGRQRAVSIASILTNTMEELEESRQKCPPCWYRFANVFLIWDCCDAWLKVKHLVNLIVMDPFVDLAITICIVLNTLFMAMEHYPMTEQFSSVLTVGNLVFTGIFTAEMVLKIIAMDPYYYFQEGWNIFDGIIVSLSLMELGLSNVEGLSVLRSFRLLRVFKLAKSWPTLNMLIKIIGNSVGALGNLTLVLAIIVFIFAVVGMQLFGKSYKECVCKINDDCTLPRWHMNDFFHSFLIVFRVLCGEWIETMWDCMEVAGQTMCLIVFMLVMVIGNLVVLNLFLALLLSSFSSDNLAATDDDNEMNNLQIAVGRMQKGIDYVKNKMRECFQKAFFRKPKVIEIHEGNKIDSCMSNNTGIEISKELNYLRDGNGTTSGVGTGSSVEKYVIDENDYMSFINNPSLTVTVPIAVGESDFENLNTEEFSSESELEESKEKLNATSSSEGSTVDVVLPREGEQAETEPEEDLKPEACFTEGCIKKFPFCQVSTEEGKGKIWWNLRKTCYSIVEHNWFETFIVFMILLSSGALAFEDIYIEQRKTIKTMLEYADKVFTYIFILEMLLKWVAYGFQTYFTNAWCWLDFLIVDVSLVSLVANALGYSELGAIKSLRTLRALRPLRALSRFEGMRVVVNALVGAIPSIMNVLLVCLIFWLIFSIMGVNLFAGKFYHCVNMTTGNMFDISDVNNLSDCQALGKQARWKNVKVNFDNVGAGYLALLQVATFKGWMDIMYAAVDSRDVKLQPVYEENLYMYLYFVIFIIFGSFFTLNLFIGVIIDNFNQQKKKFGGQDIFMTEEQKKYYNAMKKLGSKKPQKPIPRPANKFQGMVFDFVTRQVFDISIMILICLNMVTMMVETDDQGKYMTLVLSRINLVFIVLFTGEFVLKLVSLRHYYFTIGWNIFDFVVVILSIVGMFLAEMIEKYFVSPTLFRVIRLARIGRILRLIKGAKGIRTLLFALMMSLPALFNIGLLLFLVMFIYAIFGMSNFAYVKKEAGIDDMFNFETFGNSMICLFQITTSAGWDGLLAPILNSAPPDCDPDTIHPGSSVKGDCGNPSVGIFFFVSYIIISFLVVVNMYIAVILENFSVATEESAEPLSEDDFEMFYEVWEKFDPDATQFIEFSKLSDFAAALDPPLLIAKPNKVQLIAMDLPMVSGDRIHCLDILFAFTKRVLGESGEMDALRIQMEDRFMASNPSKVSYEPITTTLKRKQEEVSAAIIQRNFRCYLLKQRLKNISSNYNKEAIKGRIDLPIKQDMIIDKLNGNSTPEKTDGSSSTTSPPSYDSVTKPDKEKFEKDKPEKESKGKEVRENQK
- TEST_PROTOCOL: hSCN3A electrophysiology, whole-cell patch-clamp or PatchXpress 7000, estimated IC-50 (Table B)
- Format: cell-based
- TEST_CONDITIONS: estimated IC-50; hSCN3A cells, whole-cell patch-clamp or PatchXpress 7000; read-out: SCN3A EIC-50
For each record, write down the corresponding IC50.
Give bare numbers, in nM.

Okay, here is my list. What is IC50 for each of these?
1. O=C(NCc1ccc(F)c(OC(F)(F)F)c1)c1ccc(S(=O)(=O)Nc2ncc(Cl)s2)cc1F
2. O=C(NCc1ccc(F)c(Cl)c1)c1ccc(S(=O)(=O)Nc2nccs2)c(Cl)c1
3. COc1ccccc1C1CN(C(=O)c2ccc(S(=O)(=O)Nc3nccs3)cc2)CCO1 (stereo not shown)
4. CC(NC(=O)c1ccc(S(=O)(=O)Nc2nccs2)cc1)c1ccc(C(F)(F)F)cc1 (stereo not shown)

1: 370; 2: 1840; 3: 3420; 4: 760

Measured values drawn from patent US8741934B2 for this set.
